- EXPERIMENTAL SYSTEM: T1, Anti-CD28 Fab (SEQ ID NOs: 696, 697)
- T1 construct: In the phage ELISA the Fab was biotinylated and captured on neutravidin coated plates
- T1 sequence (VH, as listed by the source, chain 1 of 2): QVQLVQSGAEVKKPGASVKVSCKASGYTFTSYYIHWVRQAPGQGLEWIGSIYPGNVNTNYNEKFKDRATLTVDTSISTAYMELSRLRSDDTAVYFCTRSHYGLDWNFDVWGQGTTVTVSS
- T1 sequence (VL, as listed by the source, chain 2 of 2): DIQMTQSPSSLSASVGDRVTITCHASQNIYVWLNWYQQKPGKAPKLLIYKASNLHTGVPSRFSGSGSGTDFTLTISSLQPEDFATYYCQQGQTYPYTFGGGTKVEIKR
- ASSAY NOTES: phage ELISA; biotinylated anti-CD28 Fab on neutravidin plate, clonal phage detected with anti-M13-HRP
# Phage binding ELISA, Anti-CD28 Fab signal annotations
MEASURED PARAMETER: Phage binding ELISA, Anti-CD28 Fab signal

- BINDER: "LCKPGVPYQWPTCF (tested as crude clonal phage supernatant) [Phage-1456 peptide (SEQ ID NO: 1752)]"
  NUMBER: 1.82
- BINDER: "TCSAGFSYSWPACF (tested as crude clonal phage supernatant) [Phage-1447 peptide (SEQ ID NO: 1743)]"
  NUMBER: 1.86
- BINDER: "TCSAGATYAWPACY (tested as crude clonal phage supernatant) [Phage-1449 peptide (SEQ ID NO: 1745)]"
  NUMBER: 1.84
- BINDER: "TCSAGAYYAWPVCL (tested as crude clonal phage supernatant) [Phage-1451 peptide (SEQ ID NO: 1747)]"
  NUMBER: 1.84
- BINDER: "TCAAGAMWQWPVCL (tested as crude clonal phage supernatant) [Phage-1457 peptide (SEQ ID NO: 1753)]"
  NUMBER: 1.81
- BINDER: "SCAAGAAYPWPACL (tested as crude clonal phage supernatant) [Phage-1460 peptide (SEQ ID NO: 1756)]"
  NUMBER: 1.8
- BINDER: "SCAAGAMWPWPVCV (tested as crude clonal phage supernatant) [Phage-1459 peptide (SEQ ID NO: 1755)]"
  NUMBER: 1.8
- BINDER: "LCRAGAMWPWPTCL (tested as crude clonal phage supernatant) [Phage-1452 peptide (SEQ ID NO: 1748)]"
  NUMBER: 1.83
